Overview of reported minimum inhibitory concentration across a group of compounds:
tested on: Histophilus somni; test: minimum inhibitory concentration (MIC); details: isolate (source animal id): 196
measurement_label: minimum inhibitory concentration

CC[C@H]1OC(=O)C[C@@H](O)[C@H](C)[C@@H](O[C@@H]2O[C@H](C)[C@@H](O)[C@H](N(C)C)[C@H]2O)[C@@H](CCN2C[C@H](C)C[C@H](C)C2)C[C@@H](C)C(=O)/C=C/C(C)=C/[C@@H]1CO[C@@H]1O[C@H](C)[C@@H](O)[C@@H](OC)[C@H]1OC; 8 µg/mL
CN1C[C@@H]2C[C@H]1CN2c1cc2c(cc1F)c(=O)c(C(=O)O)cn2C1CC1; ≤ 0.12 µg/mL
COc1cc(NS(=O)(=O)c2ccc(N)cc2)nc(OC)n1; > 256 µg/mL
